- System: HeLa Kyoto
- ASSAY_METHOD_TEXT: solubility in G1/S (NP-40 vs SDS abundance) (log2 ratio); higher = more soluble
- SETTINGS: cell cycle stage: G1/S
Provide the recorded solubility in G1/S (log2) for the entries that follow.
Give bare numbers.

Here are 4 sequences together with their reported answers.
SEQUENCE_TEXT | MEASURED_ON | solubility in G1/S (log2)
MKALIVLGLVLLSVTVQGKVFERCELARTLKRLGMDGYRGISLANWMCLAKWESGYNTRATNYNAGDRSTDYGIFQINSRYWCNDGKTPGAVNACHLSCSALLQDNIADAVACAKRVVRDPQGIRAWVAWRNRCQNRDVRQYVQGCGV [LYZ] | HeLa Kyoto | -1.78
MPVAVGPYGQSQPSCFDRVKMGFVMGCAVGMAAGALFGTFSCLRIGMRGRELMGGIGKTMMQSGGTFGTFMAIGMGIRC [ROMO1] | HeLa Kyoto | -0.104
MEEYHRHCDEVGFNAEEAHNIVKECVDGVLGGEDYNHNNINQWTASIVEQSLTHLVKLGKAYKYIVTCAVVQKSAYGFHTASSCFWDTTSDGTCTVRWENRTMNCIVNVFAIAIVL [DYNLT3] | HeLa Kyoto | -0.189
MRVDSSADPTMSQEQGPGSSTPPSSPTLLDALLQNLYDFGGTEGETEQKKIIKKRENKKRDVMASAALAAEPSPLPGSLIRGQRKSASSFFKELREERHCAPSGTPTGPEILAAAVPPSSLKNNREQVEVVEFHSNKKRKLTPDHNKNTKQANPSVLERDVDTQEFNLEKARLEVHRFGITGYGKGKERILEQERAIMLGAKPPKKSYVNYKVLQEQIKEKKAAKEEEKRLAQETDIFKKKKRKGQEDRKSKKKSAPSILSNGRIGQVGKFKNGTLILSPVDIKKINSSRVAK [C1ORF131] | HeLa Kyoto | -1.24

Hi there! I need solubility in G1/S (log2) for each item below, if you can.
1. MNHSERFVFIAEWYDPNASLLRRYELLFYPGDGSVEMHDVKNHRTFLKRTKYDNLHLEDLFIGNKVNVFSRQLVLIDYGDQYTARQLGSRKEKTLALIKPDAISKAGEIIEIINKAGFTITKLKMMMLSRKEALDFHVDHQSRPFFNELIQFITTGPIIAMEILRDDAICEWKRLLGPANSGVARTDASESIRALFGTDGIRNAAHGPDSFASAAREMELFFPSSGGCGPANTAKFTNCTCCIVKPHAVSEGLLGKILMAIRDAGFEISAMQMFNMDRVNVEEFYEVYKGVVTEYHDMVTEMYSGPCVAMEIQQNNATKTFREFCGPADPEIARHLRPGTLRAIFGKTKIQNAVHCTDLPEDGLLEVQYFFKILDN [NME7]
2. MAAATLTSKLYSLLFRRTSTFALTIIVGVMFFERAFDQGADAIYDHINEGKLWKHIKHKYENK [UQCR10]
3. MSQSKGKKRNPGLKIPKEAFEQPQTSSTPPRDLDSKACISIGNQNFEVKADDLEPIMELGRGAYGVVEKMRHVPSGQIMAVKRIRATVNSQEQKRLLMDLDISMRTVDCPFTVTFYGALFREGDVWICMELMDTSLDKFYKQVIDKGQTIPEDILGKIAVSIVKALEHLHSKLSVIHRDVKPSNVLINALGQVKMCDFGISGYLVDSVAKTIDAGCKPYMAPERINPELNQKGYSVKSDIWSLGITMIELAILRFPYDSWGTPFQQLKQVVEEPSPQLPADKFSAEFVDFTSQCLKKNSKERPTYPELMQHPFFTLHESKGTDVASFVKLILGD [MAP2K6]
4. MGNCCWTQCFGLLRKEAGRLQRVGGGGGSKYFRTCSRGEHLTIEFENLVESDEGESPGSSHRPLTEEEIVDLRERHYDSIAEKQKDLDKKIQKELALQEEKLRLEEEALYAAQREAARAAKQRKLLEQERQRIVQQYHPSNNGEYQSSGPEDDFESCLRNMKSQYEVFRSSRLSSDATVLTPNTESSCDLMTKTKSTSGNDDSTSLDLEWEDEEGMNRMLPMRERSKTEEDILRAALKYSNKKTGSNPTSASDDSNGLEWENDFVSAEMDDNGNSEYSGFVNPVLELSDSGIRHSDTDQQTR [AP1AR]
5. MEGSFSDGGALPEGLAEEAEPQGAAWSGDSGTVSQSHSSASGPWEDEGAEDGAPGRDLPLLRRAAAGYAACLLPGAGARPEVEALDASLEDLLTRVDEFVGMLDMLRGDSSHVVSEGVPRIHAKAAEMRRIYSRIDRLEAFVRMVGGRVARMEEQVTKAEAELGTFPRAFKKLLHTMNVPSLFSKSAPSRPQQAGYEAPVLFRTEDYFPCCSERPQL [BLOC1S4]

-0.32
-0.233
0.225
0.104
0.477

Dear colleague, could you please provide solubility in G1/S (log2) for the sequences listed below?
1. MEAVLNELVSVEDLLKFEKKFQSEKAAGSVSKSTQFEYAWCLVRSKYNDDIRKGIVLLEELLPKGSKEEQRDYVFYLAVGNYRLKEYEKALKYVRGLLQTEPQNNQAKELERLIDKAMKKDGLVGMAIVGGMALGVAGLAGLIGLAVSKSKS [FIS1]
2. MAASVEQREGTIQVQGQALFFREALPGSGQARFSVLLLHGIRFSSETWQNLGTLHRLAQAGYRAVAIDLPGLGHSKEAAAPAPIGELAPGSFLAAVVDALELGPPVVISPSLSGMYSLPFLTAPGSQLPGFVPVAPICTDKINAANYASVKTPALIVYGDQDPMGQTSFEHLKQLPNHRVLIMKGAGHPCYLDKPEEWHTGLLDFLQGLQ [ABHD14B]
3. MVAGSDAGRALGVLSVVCLLHCFGFISCFSQQIYGVVYGNVTFHVPSNVPLKEVLWKKQKDKVAELENSEFRAFSSFKNRVYLDTVSGSLTIYNLTSSDEDEYEMESPNITDTMKFFLYVLESLPSPTLTCALTNGSIEVQCMIPEHYNSHRGLIMYSWDCPMEQCKRNSTSIYFKMENDLPQKIQCTLSNPLFNTTSSIILTTCIPSSGHSRHRYALIPIPLAVITTCIVLYMNGILKCDRKPDRTNSN [CD58]

0.15
0.421
-0.813

Please look up its solubility in G1/S (log2): MGAAGSSALARFVLLAQSRPGWLGVAALGLTAVALGAVAWRRAWPTRRRRLLQQVGTVAQLWIYPVKSCKGVPVSEAECTAMGLRSGNLRDRFWLVINQEGNMVTARQEPRLVLISLTCDGDTLTLSAAYTKDLLLPIKTPTTNAVHKCRVHGLEIEGRDCGEATAQWITSFLKSQPYRLVHFEPHMRPRRPHQIADLFRPKDQIAYSDTSPFLILSEASLADLNSRLEKKVKATNFRPNIVISGCDVYAEDSWDELLIGDVELKRVMACSRCILTTVDPDTGVMSRKEPLETLKSYRQCDPSERKLYGKSPLFGQYFVLENPGTIKVGDPVYLLGQ [MARC1]
0.00278

---

- Tested on: HeLa Kyoto
- ASSAY_METHOD_TEXT: solubility change mitosis vs G1/S (difference of NP-40 vs SDS log2 ratios) (log2 ratio difference); higher = more soluble in mitosis
METRIC: solubility change mitosis (log2)

Some solved cases for reference:
SEQUENCE_TEXT | solubility change mitosis (log2)
MPRPGSAQRWAAVAGRWGCRLLALLLLVPGPGGASEITFELPDNAKQCFYEDIAQGTKCTLEFQVITGGHYDVDCRLEDPDGKVLYKEMKKQYDSFTFTASKNGTYKFCFSNEFSTFTHKTVYFDFQVGEDPPLFPSENRVSALTQMESACVSIHEALKSVIDYQTHFRLREAQGRSRAEDLNTRVAYWSVGEALILLVVSIGQVFLLKSFFSDKRTTTTRVGS [TMED7] | -0.174
MPKRKVSSAEGAAKEEPKRRSARLSAKPPAKVEAKPKKAAAKDKSSDKKVQTKGKRGAKGKQAEVANQETKEDLPAENGETKTEESPASDEAGEKEAKSD [HMGN1] | 1.47
MEEVPHDCPGADSAQAGRGASCQGCPNQRLCASGAGATPDTAIEEIKEKMKTVKHKILVLSGKGGVGKSTFSAHLAHGLAEDENTQIALLDIDICGPSIPKIMGLEGEQVHQSGSGWSPVYVEDNLGVMSVGFLLSSPDDAVIWRGPKKNGMIKQFLRDVDWGEVDYLIVDTPPGTSDEHLSVVRYLATAHIDGAVIITTPQEVSLQDVRKEINFCRKVKLPIIGVVENMSGFICPKCKKESQIFPPTTGGAELMCQDLEVPLLGRVPLDPLIGKNCDKGQSFFIDAPDSPATLAYRSIIQRIQEFCNLHQSKEENLISS [NUBP1] | 0.00361
MAQETNHSQVPMLCSTGCGFYGNPRTNGMCSVCYKEHLQRQNSSNGRISPPATSVSSLSESLPVQCTDGSVPEAQSALDSTSSSMQPSPVSNQSLLSESVASSQLDSTSVDKAVPETEDVQASVSDTAQQPSEEQSKSLEKPKQKKNRCFMCRKKVGLTGFECRCGNVYCGVHRYSDVHNCSYNYKADAAEKIRKENPVVVGEKIQKI [ZFAND6] | -0.182
MEANGLGPQGFPELKNDTFLRAAWGEETDYTPVWCMRQAGRYLPEFRETRAAQDFFSTCRSPEACCELTLQPLRRFPLDAAIIFSDILVVPQALGMEVTMVPGKGPSFPEPLREEQDLERLRDPEVVASELGYVFQAITLTRQRLAGRVPLIGFAGAPWTLMTYMVEGGGSSTMAQAKRWLYQRPQASHQLLRILTDALVPYLVGQVVAGAQALQLFESHAGHLGPQLFNKFALPYIRDVAKQVKARLREAGLAPVPMIIFAKDGHFALEELAQAGYEVVGLDWTVAPKKARECVGKTVTLQGNLDPCALYASEEEIGQLVKQMLDDFGPHRYIANLGHGLYPDMDPEHVGAFVDAVHKHSRLLRQN [UROD] | -0.193

Now for a further sequence.
Would you mind telling me what solubility change mitosis (log2) value was observed for MLALISRLLDWFRSLFWKEEMELTLVGLQYSGKTTFVNVIASGQFSEDMIPTVGFNMRKVTKGNVTIKIWDIGGQPRFRSMWERYCRGVNAIVYMIDAADREKIEASRNELHNLLDKPQLQGIPVLVLGNKRDLPNALDEKQLIEKMNLSAIQDREICCYSISCKEKDNIDITLQWLIQHSKSRRS [ARL8B] ?
-0.232

Origin of the recorded values: the supplement of paper PMC5998384
